target: CGRP1 receptor (CRLR/RAMP1 complex) of human neuroblastoma SK-N-MC cells (human, UniProt Q16602 23-461; O60894 27-148); test: cell-based or functional assay
Sequence (Q16602 23-461, chain 1 of 2): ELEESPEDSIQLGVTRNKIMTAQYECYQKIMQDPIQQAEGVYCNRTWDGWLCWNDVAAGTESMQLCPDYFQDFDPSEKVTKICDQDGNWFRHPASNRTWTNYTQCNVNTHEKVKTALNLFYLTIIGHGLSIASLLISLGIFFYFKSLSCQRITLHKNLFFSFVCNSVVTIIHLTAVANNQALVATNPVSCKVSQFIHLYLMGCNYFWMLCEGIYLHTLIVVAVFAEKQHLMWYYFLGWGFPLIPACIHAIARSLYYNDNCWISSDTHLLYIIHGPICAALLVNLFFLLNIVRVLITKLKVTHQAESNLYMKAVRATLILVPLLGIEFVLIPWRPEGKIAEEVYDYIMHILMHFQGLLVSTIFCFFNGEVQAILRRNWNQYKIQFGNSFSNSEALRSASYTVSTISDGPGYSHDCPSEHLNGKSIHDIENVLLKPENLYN
Sequence (O60894 27-148, chain 2 of 2): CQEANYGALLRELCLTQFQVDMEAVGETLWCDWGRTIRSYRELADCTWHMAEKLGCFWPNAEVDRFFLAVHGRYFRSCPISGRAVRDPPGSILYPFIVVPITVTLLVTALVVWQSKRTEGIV
Ends that are not written are not given here.
// reported IC50 for each item listed
Report only the number, with the unit nM understood.

Given WFVPTDVGPFAF-NH2 [SEQ ID NO 96] , state its recorded IC50. 21.7

Given Ac-WVTHRLAGLLSRSGGVVRCNFVPTDVGPFAF-NH2 [SEQ ID NO 8] , state its recorded IC50. 0.5

Given Ac-VTHRLAGLLSRSGGVVRKNFVPTDVGPFAF-NH2 [SEQ ID NO 6] , state its recorded IC50. 0.7

Given WVTHRLAGLLSRSGGVVKNNFVPTNVGSKAF-NH2 [SEQ ID NO 4] , state its recorded IC50. 0.64

Given CGGGGGGGVTHRLAGLLSRSGGVVKNNFVPTDVGPFAF-NH2 [SEQ ID NO 3] , state its recorded IC50. 0.72

For the next question, use this binder.
Given Ac-WVTHRLAGLLSRSGGVVCNNFVPTDVGPFAF-NH2 [SEQ ID NO 9] , state its recorded IC50. 2.15
